Would you mind telling me the reported differential viability (reversal) of each entry?
Test: reversal of MRP1-mediated doxorubicin resistance, pilot screen, H69AR cells, doxorubicin co-treatment (AID 601)
Settings: H69AR cells + 2 uM doxorubicin, CellTiter-Glo, 72 h; at 10 µM; hits give high values
Express the result in % but write the number alone.

Request: // query differential viability (reversal) value for entry CC(=O)C1=C(C)NC(=O)NC1c1cccc(O)c1 (stereo unspecified)
Response: 8.07

Request: Bench note: what differential viability (reversal) did `Fc1ccc(-c2cnc[nH]2)cc1` show?
Response: 6.2

Request: What does the data say about its differential viability (reversal)? Entry: `COC(=O)Cn1cnc2sc(C)c(S(=O)(=O)N3CCC(C)CC3)c2c1=O`
Response: -5.84

Request: Fill in the blank: the reported differential viability (reversal) of `NC(=O)c1cc(-c2ccccc2)nc(Oc2ccccc2)n1` is ____.
Response: 3.71

Request: So what does the record say about differential viability (reversal) for `O=C(CN1C(=O)CCSc2ccccc21)Nc1ccc2c(c1)OCO2` ?
Response: 0.09

Request: Quick one: differential viability (reversal) of `CCOc1ccc(OCc2cccc(C(=O)N3CCCC3)c2)cc1` ?
Response: 6.89
